- measurement-description: log P by reverse phase HPLC
- Assay type: physicochemical
- test-context: RP-HPLC retention time vs toluene and triphenylene; n = 4; read-out: Direct log P
- From the text: Reverse phase HPLC (RP-HPLC) has been previously used to measure the logarithm of the octanol-water partition coefficient (log P) of many compounds [11]. To obtain the log P values recorded herein, the retention times of the compounds of interest (Table 1) along with the retention times of internal standards (toluene and triphenylene) were utilized. The resulting quantities were then substituted into Equation 1: [drawing 1] […]
quantity-kind: chromatographic logP

Consider the molecule COc1c(C)c2c3c(c1O[C@@H]1OC[C@@H](O)[C@H](O)[C@H]1O)[C@@H](C)CC[C@@H]3[C@@H](C)C[C@@H]2C=C(C)C and give its measured chromatographic logP.
4.37

Tell me the measured chromatographic logP of CC(C)=CC1CC(C)C2CCC(C)C3=C2C1=C(C)C(=O)C31OC2OC(C)C(O)C(O)C2O1 (stereo not shown) , please.
3.95

Entry under review: CC(C)=C[C@H]1C[C@H](C)[C@H]2CC[C@H](C)c3c(O[C@@H]4O[C@@H](C)[C@@H](O)[C@@H](O)[C@@H]4O)c(O)c(C)c1c32 . Reported chromatographic logP?
4.59

So what's the measured chromatographic logP for this one? CC(C)=C[C@H]1C[C@H](C)[C@H]2CC[C@H](C)c3c(O[C@@H]4OC[C@@H](O)[C@H](O)[C@H]4O)c(O)c(C)c1c32
4.42
